# testedOn: Sirt5 (Homo sapiens, UniProt Q9NXA8)
# Construct: Sirt5 residues 34-302; His-tag with linker comprising a TEV protease cleavage site (N); made in house
# Sequence (Q9NXA8 34-302): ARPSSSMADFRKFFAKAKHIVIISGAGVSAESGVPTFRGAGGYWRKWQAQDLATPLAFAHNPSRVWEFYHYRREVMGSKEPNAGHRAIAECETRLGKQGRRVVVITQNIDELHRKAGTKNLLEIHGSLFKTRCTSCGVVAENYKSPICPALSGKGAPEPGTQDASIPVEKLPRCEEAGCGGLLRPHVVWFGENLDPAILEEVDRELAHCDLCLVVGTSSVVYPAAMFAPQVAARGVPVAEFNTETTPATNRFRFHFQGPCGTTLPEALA
# method: Fluor-de-Lys peptide deacetylation assay, Sirt5
# Type: biochemical
# settings: 100 μM compound; 0.1 mM FdL-1 peptide, 0.5 mM NAD+
parameter: Effect on the activity of Sirt5

// Input: O=C1c2ccccc2C(=O)c2c(Nc3cc4c5c(ccc6c7ccc8c9c(cc(Nc%10cccc%11c%10C(=O)c%10ccccc%10C%11=O)c(c3c56)c97)-c3ccccc3C8=O)C(=O)c3ccccc3-4)cccc21 [CSC6] . Output its Effect on the activity of Sirt5 only.
--- (no such effect)

// Input: S=C(Nc1ccc2c(c1)Cc1ccccc1-2)Nc1ccc2c(c1)Cc1ccccc1-2 [CSC7, N,N'-di(9H-fluoren-2-yl)thiourea] . Output its Effect on the activity of Sirt5 only.
--- (no such effect)

Give Effect on the activity of Sirt5 for the following compound: O=C1c2ccccc2C(=O)N1c1ccc(Cc2ccc(N3C(=O)c4ccccc4C3=O)cc2)cc1 [CSC20]
--- (no such effect)
